Entry source: ChEMBL document CHEMBL5728026

Experimental Target: Prostaglandin D2 receptor 2 (Homo sapiens, UniProt Q9Y5Y4)
Protocol: Biological Activity Assay: Experimental Method:PathHunter CHO-K1 CRTH2 β-arrestin cells (DiscoverX, catalogue number 93-0291C2) grew under standard conditions, and were inoculated into a white-wall 384-well microplate at a density of 5,000 cells/well. 20 μL of Cell Plating Reagent 1 was used in each well. Before the test, the cells were incubated overnight at 37° C./5% CO2. A test compound was serially diluted in DMSO with a dilution factor of 3-fold to give 8 concentrations of the test compound. Shortly before the test, the serially diluted test compound was further diluted with the test buffer to 5 times of the test concentration. 5 μL of the further diluted test compound was added to the cells, and the cells were incubated for 30 min at 37° C. The concentration of the solvent was 1%. 5 μL of 6×EC80 agonist (PGD2) buffer was added to the cells, and the cells were incubated for 90 min at 37° C. Measured signals were generated by one-time addition of 15 μL (50% v/v) of PathHunter detection mixture reagent and subsequent one-hour incubation. The microplate was read through the chemiluminescent signals of PerkinElmer Envision™ reader. Biological activity of the test compound was analyzed by CBIS data analysis suite (ChemInnovation, CA), and was denoted as IC50 value.
So I've got a bunch of compounds here, and I need their IC50 values.

Would you mind telling me what IC50 value was observed for Cc1c(Cc2ccc3c(c2)N=CN(C)S3(=O)=O)c2cc(F)ccc2n1CC(=O)O ?
< 100 nM

IC50 lookup needed for Cc1c(C2=CS(=O)(=O)c3cc(Cl)ccc32)c2cc(F)ccc2n1CC(=O)O , thanks.
< 100 nM

If you can, please state the reported IC50 value of Cc1c(C2=CS(=O)(=O)c3ccccc32)c2ccc(Cl)cc2n1CC(=O)O .
< 100 nM

Dear colleague, I am looking for the recorded IC50 of the following compound: Cc1c(Cc2ccc3c(c2)C(F)(F)CCS3(=O)=O)c2cc(F)ccc2n1Cc1nn[nH]n1
> 1000 nM

Requested field: IC50. Item: Cc1c(C2=CCS(=O)(=O)c3ccccc32)c2cc(F)ccc2n1CC(=O)O
< 100 nM

* * *

Experimental Target: Prostaglandin D2 receptor 2 (Homo sapiens)
Sequence (Q9Y5Y4 whole entry): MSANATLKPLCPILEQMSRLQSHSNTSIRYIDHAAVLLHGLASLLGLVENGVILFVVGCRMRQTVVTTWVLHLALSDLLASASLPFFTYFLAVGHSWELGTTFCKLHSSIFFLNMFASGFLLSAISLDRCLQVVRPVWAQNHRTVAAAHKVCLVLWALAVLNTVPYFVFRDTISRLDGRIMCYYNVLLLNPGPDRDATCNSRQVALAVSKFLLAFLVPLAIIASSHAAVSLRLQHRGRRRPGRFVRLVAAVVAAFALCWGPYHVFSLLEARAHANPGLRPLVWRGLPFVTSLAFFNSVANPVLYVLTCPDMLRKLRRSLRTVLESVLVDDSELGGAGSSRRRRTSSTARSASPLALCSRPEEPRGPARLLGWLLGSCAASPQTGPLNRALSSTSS
Protocol: Biological Activity Assay: Experimental Method:PathHunter CHO-K1 CRTH2 β-arrestin cells (DiscoverX, catalogue number 93-0291C2) grew under standard conditions, and were inoculated into a white-wall 384-well microplate at a density of 5,000 cells/well. 20 μL of Cell Plating Reagent 1 was used in each well. Before the test, the cells were incubated overnight at 37° C./5% CO2. A test compound was serially diluted in DMSO with a dilution factor of 3-fold to give 8 concentrations of the test compound. Shortly before the test, the serially diluted test compound was further diluted with the test buffer to 5 times of the test concentration. 5 μL of the further diluted test compound was added to the cells, and the cells were incubated for 30 min at 37° C. The concentration of the solvent was 1%. 5 μL of 6×EC80 agonist (PGD2) buffer was added to the cells, and the cells were incubated for 90 min at 37° C. Measured signals were generated by one-time addition of 15 μL (50% v/v) of PathHunter detection mixture reagent and subsequent one-hour incubation. The microplate was read through the chemiluminescent signals of PerkinElmer Envision™ reader. Biological activity of the test compound was analyzed by CBIS data analysis suite (ChemInnovation, CA), and was denoted as IC50 value.
Provide the reported IC50 of each item.

# returns recorded IC50 (system: Prostaglandin D2 receptor 2 (Homo sapiens)) for Cc1c(Cc2ccc3c(c2)N(C)CN(C)S3(=O)=O)c2cc(F)ccc2n1CC(=O)O
< 100 nM

Return IC50 measured with Prostaglandin D2 receptor 2 (Homo sapiens) given this molecule: Cc1c(C2=CS(=O)(=O)c3cc(C(F)(F)F)ccc32)c2cc(F)ccc2n1CC(=O)O
< 100 nM

Form entry - test system: Prostaglandin D2 receptor 2 (Homo sapiens); read-out: IC50; molecule: Cc1c(Cc2ccc3c(c2)CCS3(=O)=O)c2cc(NC(=O)C3CC3)ccc2n1CC(=O)O
> 1000 nM

Reported IC50 for Prostaglandin D2 receptor 2 (Homo sapiens), given Cc1c(Cc2ccc3c(c2)CCS3(=O)=O)c2ccc(C(F)(F)F)cc2n1CC(=O)O ?
> 1000 nM

Query for Prostaglandin D2 receptor 2 (Homo sapiens): what IC50 does the record show for Cc1c(Cc2ccc3c(c2)C(F)(F)CCS3(=O)=O)c2cnccc2n1CC(=O)O ?
> 1000 nM

Give the reported IC50 for Cc1c(C2=CS(=O)(=O)c3cc(-c4cc(F)cc(Cl)c4)ccc32)c2cc(F)ccc2n1CC(=O)O (system: Prostaglandin D2 receptor 2 (Homo sapiens)).
< 100 nM

Fill in the recorded IC50 for this molecule, with Prostaglandin D2 receptor 2 (Homo sapiens) as test system: Cc1c(Cc2ccc3c(c2)C(F)(F)CCS3(=O)=O)c2cccnc2n1CC(=O)O
> 1000 nM

# get_value(readout= IC50, system= Prostaglandin D2 receptor 2 (Homo sapiens)) for Cc1c(Cc2cc3c(cc2C(F)(F)F)S(=O)(=O)N(C)CN3C)c2cc(F)ccc2n1CC(=O)O
< 100 nM

I'm curious: which IC50 was measured for O=C(O)Cn1c(-c2ccccc2)c(Cc2ccc3c(c2)CCS3(=O)=O)c2ccccc21 tested on Prostaglandin D2 receptor 2 (Homo sapiens)?
> 1000 nM
